Tested on: HPIV3
test-summary: Dose-response CPE assay, Vero cells
Type: cell-based, human parainfluenzavirus type 3
protocol-conditions: Human respirovirus 3, Vero, in Homo sapiens, read-out: EC50 (HPIV3)
assay-readout: EC50

>>> print(df.to_string())
                 chemical_string  endpoint_value
0  O=C(Cc1cccs1)Nc1nc2c(s1)CCCC2          5.8 µM

---

System: cells
test-summary: Quantitative cytotoxicity assay
Format: cell-based
protocol-conditions: 24 h; absence of virus; highest concentration assessed 150 μM; averages of two experiments
# maps each entry to its CC50
assay-readout: CC50

>>> df
                                   compound  system  assay_readout  endpoint_value
0  COc1ccc([N+](=O)[O-])cc1NC(=O)CCc1ccccc1 [compound 17416393]   cells           CC50        > 150 µM
1  COc1ccc(-n2c(SC(C)C(=O)Nc3ncc(Cl)cc3Cl)nc3ccccc32)cc1 (centres unmarked) [compound 22407448]   cells           CC50        > 150 µM
2  CC(=O)/C(C#N)=C1\NC(=O)C(Cc2ccc(C)c(C)c2)S1 (centres unmarked) [compound 14741996]   cells           CC50        > 150 µM
3  CS(=O)(=O)N1CCc2cc(-c3csc(NC(=O)Cc4cccs4)n3)ccc21 [compound 846635]   cells           CC50         ~150 µM
4  Cc1cccc(-n2c(SCC(=O)Nc3ncc(Cl)cc3Cl)nc3ccccc32)c1 [compound 22404943]   cells           CC50        > 150 µM
5  CCOC(=O)Cn1c(-c2nonc2NC(=O)c2ccccc2F)nc2ccccc21 [compound 7973070]   cells           CC50         ~150 µM
6  Cc1ccc2[nH]c(=O)c(N3CCOCC3)c(-c3ccccc3)c2c1 [compound 4259333]   cells           CC50          118 µM
7  CC1Cc2cc(-c3csc(NC(=O)Cc4cccs4)n3)ccc2N1S(C)(=O)=O (centres unmarked) [compound 852230]   cells           CC50         ~150 µM

---

Test system: cells
test-summary: Quantitative cytotoxicity assay
Assay type: cell-based
protocol-conditions: 24 h; absence of virus; highest concentration assessed 150 μM; averages of two experiments
assay-readout: CC50

>>> df
                             chemical_string  assay_readout  endpoint_value
 0      Cn1c(C(=O)NCc2ccccc2)cc2oc3ccccc3c21           CC50        > 150 µM
 1  CC(=O)Nc1ccc(Nc2cc(C)nc3c(-c4ccccc4)cnn23)cc1           CC50           54 µM
 2  O=C(CSc1nc2ccccc2n1-c1ccccc1)Nc1ncc(Cl)cc1Cl           CC50        > 150 µM
 3  CC(=O)Nc1ccc(-c2csc(NC(=O)C3CCN(S(=O)(=O)c4cccs4)CC3)n2)cc1           CC50        > 150 µM
 4  CS(=O)(=O)N1CCc2cc(-c3csc(NC(=O)Cc4ccccc4)n3)ccc21           CC50        > 150 µM
 5  CSc1ccccc1NC(=O)Cn1c(-c2cscn2)nc2ccccc21           CC50        > 150 µM
 6           CNC(=O)c1ccc(OCc2ccccc2)c(OC)c1           CC50        > 150 µM
 7  O=C(/C=C/c1cccs1)Nc1cccc(NC(=O)/C=C/c2cccs2)n1           CC50           70 µM
 8  CC(=O)Nc1ccc(-c2csc(NC(=O)CCCc3cccs3)n2)cc1           CC50        > 150 µM
 9        CCN(CC)C(=O)N1c2ccccc2C=Cc2ccccc21           CC50        > 150 µM
10  COc1cccc(CNC(=O)c2cc3oc4ccccc4c3n2C)c1OC           CC50          147 µM
11  C#CCn1c(S(=O)(=O)Cc2ccc(F)cc2)nc(-c2ccccc2)c1-c1ccccc1           CC50           26 µM
12  COc1cc(/C=C/C(=O)N2CCOCC2)ccc1OCc1ccccc1           CC50        > 150 µM
13         Cc1cccc2c(=O)cc(C)n(Cc3ccccc3)c12           CC50        > 150 µM
14  Cc1ccc(N(Cc2ccc(C(=O)NC3CCCCC3)cc2)S(C)(=O)=O)cc1C           CC50         ~150 µM
15  C=CCn1c(SCC(=O)N2CC(=O)Nc3ccccc32)nc2scc(-c3ccccc3)c2c1=O           CC50         ~150 µM
16     C=CCN=c1scc(-c2ccccc2)n1/N=C/c1ccccn1           CC50          139 µM
17         CSc1nnc2c3ccccc3n(CCc3ccccc3)c2n1           CC50        > 150 µM
18  O=C(Cc1cccs1)Nc1cc(SCCO)cc([N+](=O)[O-])c1           CC50        > 150 µM
19       CCN=c1scc(-c2ccccc2)n1/N=C/c1ccccn1           CC50         ~150 µM

---

system: MV H and F envelope glycoproteins (Measles virus, UniProt P08362+P69353)
Sequence (P08362 whole entry): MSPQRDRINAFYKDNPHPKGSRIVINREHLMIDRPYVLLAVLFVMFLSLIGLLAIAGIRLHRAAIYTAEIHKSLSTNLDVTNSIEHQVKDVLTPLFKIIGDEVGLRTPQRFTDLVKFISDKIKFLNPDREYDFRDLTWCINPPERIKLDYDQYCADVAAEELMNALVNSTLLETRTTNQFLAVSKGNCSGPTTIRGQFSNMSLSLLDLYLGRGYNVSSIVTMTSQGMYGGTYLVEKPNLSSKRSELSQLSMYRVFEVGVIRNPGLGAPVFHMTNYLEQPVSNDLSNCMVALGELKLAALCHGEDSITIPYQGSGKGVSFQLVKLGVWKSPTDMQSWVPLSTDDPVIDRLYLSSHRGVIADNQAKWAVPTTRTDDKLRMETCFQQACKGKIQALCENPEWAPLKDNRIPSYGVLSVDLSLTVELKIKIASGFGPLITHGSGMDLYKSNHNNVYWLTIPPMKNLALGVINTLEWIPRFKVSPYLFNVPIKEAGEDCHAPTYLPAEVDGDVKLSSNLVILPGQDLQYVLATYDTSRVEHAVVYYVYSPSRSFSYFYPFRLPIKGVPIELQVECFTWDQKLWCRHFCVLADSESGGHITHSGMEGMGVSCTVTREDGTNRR
Sequence (P69353 113-550): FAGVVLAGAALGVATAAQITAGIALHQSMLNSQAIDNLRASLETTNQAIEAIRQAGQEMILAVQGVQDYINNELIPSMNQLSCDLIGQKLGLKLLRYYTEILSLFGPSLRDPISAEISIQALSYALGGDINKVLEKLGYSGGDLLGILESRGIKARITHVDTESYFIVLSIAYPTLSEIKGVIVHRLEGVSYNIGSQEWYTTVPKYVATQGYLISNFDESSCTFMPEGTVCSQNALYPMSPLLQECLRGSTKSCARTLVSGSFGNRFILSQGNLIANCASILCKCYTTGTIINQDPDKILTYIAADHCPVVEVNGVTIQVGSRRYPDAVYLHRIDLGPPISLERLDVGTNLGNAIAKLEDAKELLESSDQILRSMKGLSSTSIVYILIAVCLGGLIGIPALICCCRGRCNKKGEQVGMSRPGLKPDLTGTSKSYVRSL
Sequence (P69353 24-112): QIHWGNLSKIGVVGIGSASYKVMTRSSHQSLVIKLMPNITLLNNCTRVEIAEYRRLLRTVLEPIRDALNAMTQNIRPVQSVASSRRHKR
test-summary: cell-based
pEC50: −log10 of the molar value.
assay-readout: pEC50

In [3]: df
Out[3]:
                 chemical_string  endpoint_value
0  O=C(Cc1cccs1)Nc1nc2c(s1)CCCC2            4.66

---

System: CDV-752
test-summary: Dose-response CPE assay, Vero-dogSLAM cells
Format: cell-based, canine distemper virus
protocol-conditions: canine distemper virus, read-out: EC50 (CDV-752)
assay-readout: EC50 (µM)

>>> print(df.to_string())
                                   compound  assay_readout  measurement_unit  endpoint_value
0  O=C(Cc1cccs1)Nc1nc2c(s1)CCCC2 [compound 4256670]           EC50                µM             3.9

---

Test system: cells
test-summary: Quantitative cytotoxicity assay
Format: cell-based
protocol-conditions: specificity index, CC50 / EC50 against MV-Alaska
assay-readout: SI (CC50/EC50)

In [3]: df
Out[3]:
                                    compound  system   assay_readout  sign_qualifier  endpoint_value
 0  COc1cccc(CNC(=O)c2cc3oc4ccccc4c3n2C)c1OC [compound 4242806]   cells  SI (CC50/EC50)               =             105
 1  C=CCn1c(SCC(=O)N2CC(=O)Nc3ccccc32)nc2scc(-c3ccccc3)c2c1=O [compound 14743644]   cells  SI (CC50/EC50)               =              56
 2  CSc1ccccc1NC(=O)Cn1c(-c2cscn2)nc2ccccc21 [compound 4261934]   cells  SI (CC50/EC50)               >              63
 3  CNC(=O)c1ccc(OCc2ccccc2)c(OC)c1 [compound 4265637]   cells  SI (CC50/EC50)               >              50
 4  C=CCN=c1scc(-c2ccccc2)n1/N=C/c1ccccn1 [compound 22406106]   cells  SI (CC50/EC50)               =             116
 5  COc1cc(/C=C/C(=O)N2CCOCC2)ccc1OCc1ccccc1 [compound 22415419]   cells  SI (CC50/EC50)               >              33
 6  CC(=O)Nc1ccc(-c2csc(NC(=O)C3CCN(S(=O)(=O)c4cccs4)CC3)n2)cc1 [compound 22410899]   cells  SI (CC50/EC50)               >              39
 7  CS(=O)(=O)N1CCc2cc(-c3csc(NC(=O)Cc4cccs4)n3)ccc21 [compound 846635]   cells  SI (CC50/EC50)               =              56
 8  C#CCn1c(S(=O)(=O)Cc2ccc(F)cc2)nc(-c2ccccc2)c1-c1ccccc1 [compound 17409378]   cells  SI (CC50/EC50)               =              37
 9  CC1Cc2cc(-c3csc(NC(=O)Cc4cccs4)n3)ccc2N1S(C)(=O)=O (centres unmarked) [compound 852230]   cells  SI (CC50/EC50)               =              46
10  CCN=c1scc(-c2ccccc2)n1/N=C/c1ccccn1 [compound 22406746]   cells  SI (CC50/EC50)               =              37
11  CC(=O)/C(C#N)=C1\NC(=O)C(Cc2ccc(C)c(C)c2)S1 (centres unmarked) [compound 14741996]   cells  SI (CC50/EC50)               >              47
12  O=C(Cc1cccs1)Nc1cc(SCCO)cc([N+](=O)[O-])c1 [compound 22402685]   cells  SI (CC50/EC50)               >              79
13  Cc1ccc(N(Cc2ccc(C(=O)NC3CCCCC3)cc2)S(C)(=O)=O)cc1C [compound 14722514]   cells  SI (CC50/EC50)               =             214
14  O=C(CSc1nc2ccccc2n1-c1ccccc1)Nc1ncc(Cl)cc1Cl [compound 22407466]   cells  SI (CC50/EC50)               >              71
15  CC(=O)Nc1ccc(Nc2cc(C)nc3c(-c4ccccc4)cnn23)cc1 [compound 17505573]   cells  SI (CC50/EC50)               =              14
16  CCN(CC)C(=O)N1c2ccccc2C=Cc2ccccc21 [compound 14740150]   cells  SI (CC50/EC50)               >              34
17  COc1ccc([N+](=O)[O-])cc1NC(=O)CCc1ccccc1 [compound 17416393]   cells  SI (CC50/EC50)               >             100
18  CSc1nnc2c3ccccc3n(CCc3ccccc3)c2n1 [compound 7976354]   cells  SI (CC50/EC50)               >              33
19  O=C(/C=C/c1cccs1)Nc1cccc(NC(=O)/C=C/c2cccs2)n1 [compound 17433375]   cells  SI (CC50/EC50)               =              19
20  CC(=O)Nc1ccc(-c2csc(NC(=O)CCCc3cccs3)n2)cc1 [compound 22408576]   cells  SI (CC50/EC50)               >              65
21  Cc1cccc(-n2c(SCC(=O)Nc3ncc(Cl)cc3Cl)nc3ccccc32)c1 [compound 22404943]   cells  SI (CC50/EC50)               >             214
22  CCOC(=O)Cn1c(-c2nonc2NC(=O)c2ccccc2F)nc2ccccc21 [compound 7973070]   cells  SI (CC50/EC50)               =             375
23  Cc1ccc2[nH]c(=O)c(N3CCOCC3)c(-c3ccccc3)c2c1 [compound 4259333]   cells  SI (CC50/EC50)               =              36
24  Cc1cccc2c(=O)cc(C)n(Cc3ccccc3)c12 [compound 22415156]   cells  SI (CC50/EC50)               >              42
25  CS(=O)(=O)N1CCc2cc(-c3csc(NC(=O)Cc4ccccc4)n3)ccc21 [compound 14723513]   cells  SI (CC50/EC50)               >              41
